The reported numbers originate from patent US20140186365A1.

Molecular target: Human Serum Albumin (human) (UniProt P02768)
Experiment: BLI (Octet Red), HSA on sensor tips, VH domain in solution, 1:1 fit
testReadout: koff (s⁻¹)

Observe how each entry below is paired with its result.
- binder: "VH-3E11 (protein) VH: QVQLQQSGPGLVKPSQTLSLTCAISGDSVSGNSAAWNWIRQSPSRGLEWLGRTYYRSKWYIGYAASLQSRLAINADTSKNQLSLRLSSVTPEDTAVYYCVGRHYSGHSGAFDTWGHGTMVTVSSSASGAGS"
  valueUnit: "s⁻¹"
  koff: 0.000133
- binder: "VH-4D6 (protein) VH: EVQLVQSGAEVKKPGESLKISCKGSGYSFTSYWIGWVRQMPGKGLEWMGIIYPGDSDTRYSPSFQGQVTISADKSISTAYLQWSSLKASDTAMYYCARLDCSGGSCYYYYYGMDVWGQGTTVTVSSSASGAGS"
  valueUnit: "s⁻¹"
  koff: 0.000141
- binder: "VH-3B11 (protein) VH: EVQLVQSGAEVKKPGESLKISCKGSGYSFTSYWIGWVRQMPGKGLEWMGIVYPGDSDTRYSPSFQGQVTISAGKSISTAYLQWSSLKASDTAMYYCARPSMGATTWISAFDIWGQGTTVTVSSSASGAGS"
  valueUnit: "s⁻¹"
  koff: 0.000126

a = VH-1C5 (protein) VH: QVQLQQSGPGLVKPSQTLSLTCAISGDSVSSNSAAWNWIRQSPSRGLEWLGRTYYRSKWYNDYAVSVKSRITINPDTSKNQFSLQLNSVTPEDTAVYYCARTPSTGTLDCWGRGTLVTVSSSASGAGS
b = VH-3C2 (protein) VH: QVQLQQSGPGLVKPSQTLSLTCAISGDSVSSKSAAWNWIRQSPSRGLEWLGRTYYRSKWYNDYVVSLRSRITVSPDTSKNQFSLQLNSVTPEDTAMYYCARTRGHIDLWGRGTLVTVSSSASGAGS
[in] // select label with min value of measured koff from [ a , b ] Label of pick, please.
[out] a
